Measured MIC, listed per entry for reference.
# System: Haemophilus influenzae 76
# Protocol text: MIC, standard agar-dilution assay
# Format: cell-based
# Test conditions: Haemophilus influenzae 76; Ampicillin-resistant strain; agar dilution; read-out: MIC

>  <Molecule>
CCC1OC(=O)CC(O)C(C)C(OC2OC(C)C(O)C(N(C)C)C2O)C(CCN2CC(C)CC(C)C2)CC(C)C(=O)C=CC(C)=CC1COC1OC(C)C(OC(C)=O)C(OC)C1OC (stereo not shown)

>  <MIC>
64 µg/mL

$$$$
>  <Molecule>
CCC(C)CN(CC)CCC1CC(C)C(=O)C=CC(C)=CC(COC2OC(C)C(OC(C)=O)C(OC)C2OC)C(CC)OC(=O)CC(O)C(C)C1OC1OC(C)C(O)C(N(C)C)C1O (stereo not shown)

>  <MIC>
128 µg/mL

$$$$
>  <Molecule>
CCC1OC(=O)CC(O)C(C)C(OC2OC(C)C(O)C(N(C)C)C2O)C(CCOc2ccccc2)CC(C)C(=O)C=CC(C)=CC1COC1OC(C)C(OC(=O)CN2CCN(C)CC2)C(OC)C1OC (stereo not shown)

>  <MIC>
128 µg/mL

$$$$
>  <Molecule>
CCC1OC(=O)CC(O)C(C)C(OC2OC(C)C(O)C(N(C)C)C2O)C(CCOc2ccccc2)CC(C)C(=O)C=CC(C)=CC1COC1OC(C)C(OC(C)=O)C(OC)C1OC (stereo not shown)

>  <MIC>
128 µg/mL

$$$$
>  <Molecule>
CCC1OC(=O)CC(O)C(C)C(OC2OC(C)C(OC(C)=O)C(N(C)C)C2OC(C)=O)C(CCOc2ccccc2)CC(C)C(=O)C=CC(C)=CC1COC1OC(C)C(OC(=O)CCl)C(OC)C1OC (stereo not shown)

>  <MIC>
> 128 µg/mL

$$$$
>  <Molecule>
CCC1OC(=O)CC(O)C(C)C(OC2OC(C)C(O)C(N(C)C)C2O)C(CCOc2ccccc2)CC(C)C(=O)C=CC(C)=CC1COC1OC(C)C(OC(=O)CNCc2ccccc2)C(OC)C1OC (stereo not shown)

>  <MIC>
64 µg/mL

$$$$
>  <Molecule>
CCC1OC(=O)CC(O)C(C)C(OC2OC(C)C(O)C(N(C)C)C2O)C(CCOc2ccccc2)CC(C)C(=O)C=CC(C)=CC1COC1OC(C)C(OC(=O)C(N)c2ccccc2)C(OC)C1OC (stereo not shown)

>  <MIC>
64 µg/mL

$$$$
>  <Molecule>
CCC1OC(=O)CC(O)C(C)C(OC2OC(C)C(OC(C)=O)C(N(C)C)C2OC(C)=O)C(CCOc2ccccc2)CC(C)C(=O)C=CC(C)=CC1COC1OC(C)C(OC(C)=O)C(OC)C1OC (stereo not shown)

>  <MIC>
> 128 µg/mL

$$$$
>  <Molecule>
CCC1OC(=O)CC(O)C(C)C(OC2OC(C)C(O)C(N(C)C)C2O)C(CCOc2ccccc2)CC(C)C(=O)C=CC(C)=CC1COC1OC(C)C(OC(=O)CN2CCCC2)C(OC)C1OC (stereo not shown)

>  <MIC>
32 µg/mL

$$$$
>  <Molecule>
CCC1OC(=O)CC(O)C(C)C(OC2OC(C)C(O)C(N(C)C)C2O)C(CCOc2ccccc2)CC(C)C(=O)C=CC(C)=CC1COC1OC(C)C(OC(=O)C(NC(=O)OC(C)(C)C)c2ccccc2)C(OC)C1OC (stereo not shown)

>  <MIC>
> 128 µg/mL

$$$$

----------
# Test system: Staphylococcus epidermidis 222
# Protocol text: MIC, standard agar-dilution assay
# Format: cell-based
# Test conditions: Staphylococcus epidermidis 222; agar dilution; read-out: MIC
Measured MIC, listed per entry for reference.
Value kind: MIC (µg/mL)

>  <Compound>
CCC1OC(=O)CC(O)C(C)C(OC2OC(C)C(O)C(N(C)C)C2O)C(CCOc2ccccc2)CC(C)C(=O)C=CC(C)=CC1COC1OC(C)C(OC(C)=O)C(OC)C1OC (centres unmarked)

>  <System under test>
Staphylococcus epidermidis 222

>  <Observed measurement>
1

$$$$
>  <Compound>
CCC1OC(=O)CC(O)C(C)C(OC2OC(C)C(OC(C)=O)C(N(C)C)C2OC(C)=O)C(CCOc2ccccc2)CC(C)C(=O)C=CC(C)=CC1COC1OC(C)C(OC(C)=O)C(OC)C1OC (centres unmarked)

>  <System under test>
Staphylococcus epidermidis 222

>  <Observed measurement>
1

$$$$
>  <Compound>
CCC1OC(=O)CC(O)C(C)C(OC2OC(C)C(O)C(N(C)C)C2O)C(CCOc2ccccc2)CC(C)C(=O)C=CC(C)=CC1COC1OC(C)C(OC(=O)C(N)c2ccccc2)C(OC)C1OC (centres unmarked)

>  <System under test>
Staphylococcus epidermidis 222

>  <Observed measurement>
1

$$$$
>  <Compound>
CCC1OC(=O)CC(O)C(C)C(OC2OC(C)C(O)C(N(C)C)C2O)C(CCOc2ccccc2)CC(C)C(=O)C=CC(C)=CC1COC1OC(C)C(OC(=O)CNCc2ccccc2)C(OC)C1OC (centres unmarked)

>  <System under test>
Staphylococcus epidermidis 222

>  <Observed measurement>
2

$$$$
>  <Compound>
CCC1OC(=O)CC(O)C(C)C(OC2OC(C)C(O)C(N(C)C)C2O)C(CCOc2ccccc2)CC(C)C(=O)C=CC(C)=CC1COC1OC(C)C(OC(=O)CN2CCCC2)C(OC)C1OC (centres unmarked)

>  <System under test>
Staphylococcus epidermidis 222

>  <Observed measurement>
0.5

$$$$

----------
# Test system: Staphylococcus aureus X1.1
# Protocol text: MIC, standard agar-dilution assay
# Type: cell-based
# Test conditions: Staphylococcus aureus X1.1; agar dilution; read-out: MIC

>  <Molecule>
CCC1OC(=O)CC(O)C(C)C(OC2OC(C)C(O)C(N(C)C)C2O)C(CCOc2ccccc2)CC(C)C(=O)C=CC(C)=CC1COC1OC(C)C(OC(=O)CN2CCCC2)C(OC)C1OC (centres unmarked)

>  <MIC / µg/mL>
0.5

$$$$
>  <Molecule>
CCC1OC(=O)CC(O)C(C)C(OC2OC(C)C(O)C(N(C)C)C2O)C(CCOc2ccccc2)CC(C)C(=O)C=CC(C)=CC1COC1OC(C)C(OC(=O)C(N)c2ccccc2)C(OC)C1OC (centres unmarked)

>  <MIC / µg/mL>
1

$$$$
>  <Molecule>
CCC1OC(=O)CC(O)C(C)C(OC2OC(C)C(OC(C)=O)C(N(C)C)C2OC(C)=O)C(CCOc2ccccc2)CC(C)C(=O)C=CC(C)=CC1COC1OC(C)C(OC(C)=O)C(OC)C1OC (centres unmarked)

>  <MIC / µg/mL>
4

$$$$
>  <Molecule>
CCC1OC(=O)CC(O)C(C)C(OC2OC(C)C(O)C(N(C)C)C2O)C(CCOc2ccccc2)CC(C)C(=O)C=CC(C)=CC1COC1OC(C)C(OC(=O)C(NC(=O)OC(C)(C)C)c2ccccc2)C(OC)C1OC (centres unmarked)

>  <MIC / µg/mL>
8

$$$$
>  <Molecule>
CCC(C)CN(CC)CCC1CC(C)C(=O)C=CC(C)=CC(COC2OC(C)C(OC(C)=O)C(OC)C2OC)C(CC)OC(=O)CC(O)C(C)C1OC1OC(C)C(O)C(N(C)C)C1O (centres unmarked)

>  <MIC / µg/mL>
8

$$$$

----------
# Tested on: Staphylococcus epidermidis 222
# Protocol text: MIC, standard agar-dilution assay
# Format: cell-based
# Test conditions: Staphylococcus epidermidis 222; agar dilution; read-out: MIC
Measured MIC, listed per entry for reference.

>  <Compound>
CCC1OC(=O)CC(O)C(C)C(OC2OC(C)C(O)C(N(C)C)C2O)C(CCN2CC(C)CC(C)C2)CC(C)C(=O)C=CC(C)=CC1COC1OC(C)C(OC(C)=O)C(OC)C1OC (centres unmarked) [Compound 19]

>  <MIC (µg/mL)>
1

$$$$
>  <Compound>
CCC(C)CN(CC)CCC1CC(C)C(=O)C=CC(C)=CC(COC2OC(C)C(OC(C)=O)C(OC)C2OC)C(CC)OC(=O)CC(O)C(C)C1OC1OC(C)C(O)C(N(C)C)C1O (centres unmarked) [Compound 17]

>  <MIC (µg/mL)>
4

$$$$
>  <Compound>
CCC1OC(=O)CC(O)C(C)C(OC2OC(C)C(OC(C)=O)C(N(C)C)C2OC(C)=O)C(CCOc2ccccc2)CC(C)C(=O)C=CC(C)=CC1COC1OC(C)C(OC(=O)CCl)C(OC)C1OC (centres unmarked) [Compound 8]

>  <MIC (µg/mL)>
2

$$$$
>  <Compound>
CCC1OC(=O)CC(O)C(C)C(OC2OC(C)C(O)C(N(C)C)C2O)C(CCOc2ccccc2)CC(C)C(=O)C=CC(C)=CC1COC1OC(C)C(OC(=O)CN2CCN(C)CC2)C(OC)C1OC (centres unmarked) [Compound 15]

>  <MIC (µg/mL)>
4

$$$$
>  <Compound>
CCC1OC(=O)CC(O)C(C)C(OC2OC(C)C(O)C(N(C)C)C2O)C(CCOc2ccccc2)CC(C)C(=O)C=CC(C)=CC1COC1OC(C)C(OC(=O)C(NC(=O)OC(C)(C)C)c2ccccc2)C(OC)C1OC (centres unmarked) [Compound 6]

>  <MIC (µg/mL)>
8

$$$$

Reference for the values: patent EP0262903A2
